B1: Hairpin Ribozyme (parent)
chain: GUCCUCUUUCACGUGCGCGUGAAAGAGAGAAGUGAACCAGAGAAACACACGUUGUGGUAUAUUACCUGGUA

# Variants of: B1
# Protocol description: self-cleavage, relative activity (ratio to wild type); higher = more cleavage; co-transcriptional
// label = Y if self-cleavage is not less than 0.3, otherwise N

[[record]]
variant_key = "U9A A41U"
label = "Y"

[[record]]
variant_key = "U67C G69A"
label = "N"

[[record]]
variant_key = "A30U G34U"
label = "Y"

[[record]]
variant_key = "A41U U53C"
label = "Y"

[[record]]
variant_key = "G32A A41G"
label = "N"


// inclusive: self-cleavage at least 0.3? input: C16A G69C N

// inclusive: self-cleavage at least 0.3? input: C12A G34C Y

// inclusive: self-cleavage at least 0.3? input: C6U C37A N

// inclusive: self-cleavage at least 0.3? input: U20A G25U Y

Taken from the RNAGym collection of RNA variant scans (doi:10.7554/elife.80360).
